Activity calls are given as the source filed them.
Here's what we have: Kd numbers for Eukaryotic translation initiation factor 2-alpha kinase 1 (Homo sapiens, UniProt Q9BQI3).

Recorded results for 2 compounds are shown here.
[[record]]
chemicalstring = "O=C(Nc1nc2cccc(-c3ccc(CN4CCS(=O)(=O)CC4)cc3)n2n1)C1CC1"
val = "> 30 µM (inactive)"

[[record]]
chemicalstring = "COc1ccc(S(=O)(=O)N(C(C)=O)c2ccccc2/C=C/c2cc[n+]([O-])cc2)cc1"
val = "> 30 µM (inactive)"


Could I get Kd for every one of these entries?
1. Cc1nc2cc(-n3ncc(C(=O)c4cc5ccccc5[nH]4)c3N)ccc2[nH]1
2. NC(=O)Nc1cc(-c2cccc(F)c2)sc1C(=O)N[C@H]1CCCNC1
3. Cc1cc(Nc2ncnc3ccc(NC4=NC(C)(C)CO4)cc23)ccc1Oc1ccn2ncnc2c1
4. Cn1ncc(Cl)c1-c1cc(C(=O)N[C@H](CN)Cc2ccc(F)c(F)c2)oc1Cl
5. C[C@@H](N)c1ccc(C(=O)Nc2ccnc3[nH]ccc23)cc1
6. COc1c(OCCCN2CCOCC2)ccc2c1N=C(NC(=O)c1cnc(N)nc1)N1CCN=C21

Result:
["> 30 µM (inactive)", "> 30 µM (inactive)", "> 30 µM (inactive)", "> 30 µM (inactive)", "> 30 µM (inactive)", "> 30 µM (inactive)"]
